Data origin, for the record: the supplement of paper PMC10127200

system: A549; experiment: Euclidean distance of Cell Painting phenotypic profile (signed KS, 77 features) to DMSO centroid (dimensionless distance); 5 or 10 uM (library dependent); higher = stronger phenotypic change vs DMSO (phenoactivity); details: 48 h
Structures can show the parent of a compound that is named as a salt.
Think of 1 as a floor: if Euclidean distance stands on it or above, it is yes (1); beneath it, no (0).

## Input Textbook exercise: given the entry C[C@]12CC[C@@H]3c4ccc(OS(=O)(=O)O)cc4CC[C@H]3[C@@H]1CCC2=O [Estropipate] , state whether its Euclidean distance is greater than or equal to 1.
## Output no (0)

## Input Hi team, for CCN(CC)C(=O)N1CCN(C)CC1 [Diethylcarbamazine citrate] , is the recorded Euclidean distance at or above 1?
## Output no (0)

## Input Given the entry O=C(CCCCCCC(=O)Nc1ccccc1)NO [Vorinostat (SAHA. MK0683)] , answer whether its Euclidean distance meets or surpasses 1.
## Output yes (1)

## Input Can COc1ccccc1Oc1c(NS(=O)(=O)c2ccc(C(C)(C)C)cc2)nc(-c2ncccn2)nc1OCCO [Bosentan Hydrate] be said to have Euclidean distance at or above 1?
## Output no (0)

###

tested on: OVCAR4; assay: Euclidean distance of Cell Painting phenotypic profile (signed KS, 77 features) to DMSO centroid (dimensionless distance); 5 or 10 uM (library dependent); higher = stronger phenotypic change vs DMSO (phenoactivity); conditions: 48 h
Counter-ions that a name gives are not always drawn.
measurement_kind: Euclidean distance
Note: the reply should be a number with no unit written.

Take a look at these entries with their results.
>>> quantitative_readout("NCC(=O)Nc1ccc(-n2nc(C(F)(F)F)cc2-c2ccc3c(ccc4ccccc43)c2)cc1")
1.38
>>> quantitative_readout("Nc1ncnc2n[nH]c(Nc3ccc(F)cc3)c12")
1.4
>>> quantitative_readout("CCOC(=O)N1c2ccc(C(F)(F)F)cc2[C@@H](N(Cc2cc(C(F)(F)F)cc(C(F)(F)F)c2)C(=O)OC)C[C@H]1CC")
1.29
>>> quantitative_readout("Cc1ccc(C(=O)N(CCCN)[C@@H](c2oc3cc(Cl)ccc3c(=O)c2Cc2ccccc2)C(C)C)cc1")
3.2
>>> quantitative_readout("O=C(Nc1ccc(S(=O)(=O)Nc2ccccc2Cl)c(Cl)c1)c1ccccn1")
0.782
>>> quantitative_readout("C[N+](C)(C)NCCC(=O)[O-] [Mildronate]")
0.82

## Input Fill blank: measured Euclidean distance of the compound CO/N=C(\C(=O)N[C@@H]1C(=O)N2C(C(=O)O)=CCS[C@H]12)c1csc(N)n1 [Ceftizoxime sodium] is ____.
## Output 0.958

## Input Look up Euclidean distance: COc1ccc(CN2CCN(C(c3ccc(F)cc3)c3ccc(F)cc3)CC2)c(OC)c1OC [Lomerizine HCl]
## Output 0.83

###

system: A549; assay: Euclidean distance of Cell Painting phenotypic profile (signed KS, 77 features) to DMSO centroid (dimensionless distance); 5 or 10 uM (library dependent); higher = stronger phenotypic change vs DMSO (phenoactivity); settings: 48 h
Counter-ions that a name gives are not always drawn.
As shown below, each of these compounds has a reported Euclidean distance value.
Number only, no unit.

>>> quantitative_readout("N=C1CCCN1Cc1[nH]c(=O)[nH]c(=O)c1Cl.O=c1[nH]c(=O)n([C@H]2C[C@H](O)[C@@H](CO)O2)cc1C(F)(F)F")
3.48
>>> quantitative_readout("CN1CCN(C2=Nc3cc(Cl)ccc3Nc3ccccc32)CC1 [Clozapine]")
1.56
>>> quantitative_readout("COc1ccc(-c2cc(=O)c3c(O)cc(O[C@@H]4O[C@H](CO[C@@H]5O[C@@H](C)[C@H](O)[C@@H](O)[C@H]5O)[C@@H](O)[C@H](O)[C@H]4O)cc3o2)cc1O [Diosmin]")
0.621
>>> quantitative_readout("C[C@H](Cn1cnc2c(N)ncnc21)OCP(=O)(O)O [Tenofovir]")
1.45
>>> quantitative_readout("NCCNc1ccc(NCCN)c2c1C(=O)c1ccncc1C2=O [Pixantrone Maleate]")
3.32

## Input Query Euclidean distance on A549 for Nc1ccc(S(=O)(=O)Nc2cnc3ccccc3n2)cc1 [Sulfaquinoxaline sodium]
## Output 0.727

## Input Param readout= Euclidean distance; system= A549; entry= `C=CC(=O)Nc1cccc(Nc2nc(Nc3ccc(Oc4ccnc(C(=O)NC)c4)cc3)ncc2F)c1` ; returns value.
## Output 1.47

## Input Please state recorded Euclidean distance (tested on A549) of `O=C(O)c1ccc(N2C(=O)/C(=C\c3ccc(-c4ccc([N+](=O)[O-])cc4)o3)C=C2c2ccccc2)cc1`
## Output 1.23

###

tested on: HEPG2; assay: Euclidean distance of Cell Painting phenotypic profile (signed KS, 77 features) to DMSO centroid (dimensionless distance); 5 or 10 uM (library dependent); higher = stronger phenotypic change vs DMSO (phenoactivity); details: 48 h
Structures can show the parent of a compound that is named as a salt.
measurement_kind: Euclidean distance
Give a plain numeric answer without units written out.

>>> quantitative_readout("CCC(=O)Nc1cccc(Oc2nc(Nc3ccc(N4CCN(C)CC4)cc3OC)ncc2Cl)c1")
1.61
>>> quantitative_readout("CN1CCCN=C1/C=C/c1cccc(O)c1 [Oxantel Pamoate]")
0.882
>>> quantitative_readout("O=C(NOC[C@H](O)CO)c1ccc(F)c(F)c1Nc1ccc(I)cc1F")
2.03
>>> quantitative_readout("O=C(O)c1cc(/N=N/c2ccc(S(=O)(=O)Nc3ccccn3)cc2)ccc1O")
0.963
>>> quantitative_readout("O=c1[nH]cnc2c1ncn2[C@H]1CC[C@@H](CO)O1")
0.649
>>> quantitative_readout("Cc1ncc([N+](=O)[O-])n1CCO")
0.943
>>> quantitative_readout("Cc1ccccc1N1CCN(CCc2nnc3n2CCCC3)CC1 [Dapiprazole Hydrochloride]")
1.09
>>> quantitative_readout("COc1ccnc(C[S+]([O-])c2nc3cc(OC(F)F)ccc3[nH]2)c1OC (centres undefined) [Pantoprazole]")
1.62

## Input Return reported Euclidean distance; argument: `CN1C(N)=N[C@](C)(c2cc(NC(=O)c3ccc(F)cn3)ccc2F)CS1(=O)=O`
## Output 0.509

## Input # lookup: Euclidean distance of C/C(=C\C(=O)OCCCCCCCCC(=O)O)C[C@@H]1OC[C@H](C[C@@H]2O[C@H]2[C@@H](C)[C@H](C)O)[C@@H](O)[C@H]1O [Mupirocin calcium]
## Output 0.518

## Input Which Euclidean distance value belongs to COc1cc2/c(=N/c3ccc(Br)cc3F)nc[nH]c2cc1OCC1CCN(C)CC1 [Vandetanib (ZD6474)] ?
## Output 1.7

###

test system: 786-O; experiment: Euclidean distance of Cell Painting phenotypic profile (signed KS, 77 features) to DMSO centroid (dimensionless distance); 5 or 10 uM (library dependent); higher = stronger phenotypic change vs DMSO (phenoactivity); settings: 48 h
Where a name gives a salt, the structure may show the parent alone.
measurement_kind: Euclidean distance
// keep it numeric: no unit symbol after the value

Field: example entries. Status: answers known.
>>> quantitative_readout("CC[C@H](C)[C@H](NC(=O)[C@H]([C@@H](C)CC)N(C)C(C)=O)C(=O)N[C@H](C(=O)N[C@@H](CC(C)C)C(=O)[C@@]1(C)CO1)[C@@H](C)O")
2.19
>>> quantitative_readout("O=C(O)CC1CC(c2ccccc2)=NO1 (centres undefined)")
0.76
>>> quantitative_readout("CC1=C(/C=C/C(C)=C/C=C/C(C)=C/C(=O)Nc2ccc(O)cc2)C(C)(C)CCC1 [Fenretinide]")
2.9
>>> quantitative_readout("c1ccc(CN(CC2=NCCN2)c2ccccc2)cc1 [Antazoline HCl]")
1.19
>>> quantitative_readout("Cc1ccc(C)c(OCCCC(C)(C)C(=O)O)c1")
1.23

## Input Look up Euclidean distance for this molecule: `O=C(CCCCCN1C(=O)c2cccc3cccc(c23)C1=O)NO`
## Output 3.19

## Input Which Euclidean distance value belongs to `CC(=O)[C@H]1CC[C@H]2[C@@H]3CC=C4C[C@@H](O)CC[C@]4(C)[C@H]3CC[C@]12C` ?
## Output 1.29

## Input Item `NC(=O)c1ccc(-c2nc(-c3ccccn3)c(-c3ccc4c(c3)OCO4)[nH]2)cc1` has what recorded Euclidean distance?
## Output 1.59

## Input Bench note: what Euclidean distance did CN1CCN(C(c2ccccc2)c2ccccc2)CC1 [Cyclizine 2HCl] show?
## Output 1.05

###

tested on: OVCAR4; test: Euclidean distance of Cell Painting phenotypic profile (signed KS, 77 features) to DMSO centroid (dimensionless distance); 5 or 10 uM (library dependent); higher = stronger phenotypic change vs DMSO (phenoactivity); settings: 48 h
Counter-ions that a name gives are not always drawn.
Assign True to entries whose Euclidean distance meets or exceeds 0.9; assign False to the rest.

Take a look at these entries with their results.
>>> label("CC(=O)O[C@@H]1CC[C@@]2(C)[C@@H](CC[C@]3(C)[C@@H]2C(=O)C=C2[C@@H]4[C@@H](C)[C@H](C)CC[C@]4(C)CC[C@]23C)[C@@]1(C)C(=O)O")
"False"
>>> label("CCC(C)(C)c1ccc(CC(C)CN2C[C@@H](C)O[C@@H](C)C2)cc1 (stereo partly drawn) [Amorolfine HCl]")
"False"
>>> label("CCN(CC)CCOC(=O)c1ccc(N)cc1Cl [Chloroprocaine HCl]")
"True"
>>> label("CC(C)(CO)[C@@H](O)C(=O)NCCCO")
"True"
>>> label("CCOC(=O)c1c(CSc2ccccc2)n(C)c2cc(Br)c(O)c(CN(C)C)c12 [Arbidol HCl]")
"True"

## Input Hello, I need to know if NC(=O)/N=N/C(N)=O [Azodicarbonamide] has measured Euclidean distance not below 0.9. Thanks!
## Output True

## Input Please check the record C[C@H](O)[C@H](O)[C@H]1CNc2[nH]c(N)nc(=O)c2N1 [Sapropterin Dihydrochloride] and state if its Euclidean distance is at or above 0.9.
## Output False
